Sourced from patent US20260167721A1

biological target: T1, recombinant human CD3 epsilon/gamma heterodimer (human, UniProt P07766 23-126; P09693 23-116); assay: BLI (Octet), mAb 5 ug/mL on FAB2G sensor, hCD3 E/G 200-50 nM;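 note: antibodies purified from hybridoma supernatants, measured by Octet binding to recombinant human CD3 protein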
T1 construct: Recombinant heterodimer used as analyte in Octet; also called hCD3 E/G
T1 sequence (P07766 23-126, chain 1 of 2): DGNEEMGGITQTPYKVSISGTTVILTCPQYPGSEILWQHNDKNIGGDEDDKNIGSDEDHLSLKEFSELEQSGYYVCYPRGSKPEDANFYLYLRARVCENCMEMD
T1 sequence (P09693 23-116, chain 2 of 2): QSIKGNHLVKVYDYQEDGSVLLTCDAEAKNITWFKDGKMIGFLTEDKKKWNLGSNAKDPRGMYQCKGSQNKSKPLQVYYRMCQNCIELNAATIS
MEASURE: Response

[
  {
    "BINDER": "ABL-CD3-82 (antibody, V domains shown, mAb purified from hybridoma; chimeric AlivaMab IgG (human VH, CH1 and upper hinge; mouse middle hinge, CH2, CH3; human light chain)) VH: EVQLVESGGGLVKPGGSLRLSCAASGFTFSSYSMNWVRQAPGKGLEWVSSISSSSSYIYYADSVKGRFTISRDNAKNSLYLQMNSLRAEDTAVYYCARDRRELLLDYWGQGTLVTVSS VL: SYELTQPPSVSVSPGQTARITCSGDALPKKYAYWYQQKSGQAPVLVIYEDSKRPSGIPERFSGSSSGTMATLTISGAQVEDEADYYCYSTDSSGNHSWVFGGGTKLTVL",
    "OBSERVED": 0.02
  },
  {
    "BINDER": "ABL-CD3-72 (antibody, V domains shown, mAb purified from hybridoma; chimeric AlivaMab IgG (human VH, CH1 and upper hinge; mouse middle hinge, CH2, CH3; human light chain)) VH: EVQLVESGGGLVKPGGSLRLSCAASGFTFSTYIMNWVRQAPGKGLEWVSSISSSRSYIYYADSVKGRFTISRDNAKNSLYLQMNSLRAEDTAVYYCAREDRYRLFFDYWGQGTLVTVSS VL: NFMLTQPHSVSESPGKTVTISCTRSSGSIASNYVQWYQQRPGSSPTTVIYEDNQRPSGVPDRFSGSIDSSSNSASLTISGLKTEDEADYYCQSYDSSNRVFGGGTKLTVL",
    "OBSERVED": 0.09
  },
  {
    "BINDER": "ABL-CD3-69 (antibody, V domains shown, mAb purified from hybridoma; chimeric AlivaMab IgG (human VH, CH1 and upper hinge; mouse middle hinge, CH2, CH3; human light chain)) VH: EVQLVESGGGLVKPGGSLRLSCAASGFTFSTYTMNWVRQAPGKGLEWVSTITSSSRYIYYADSVKGRFTISRDNAKNSLYLQMNSLRAEDTAVYYCARVTFDAFDIWGQGTMVTVSS VL: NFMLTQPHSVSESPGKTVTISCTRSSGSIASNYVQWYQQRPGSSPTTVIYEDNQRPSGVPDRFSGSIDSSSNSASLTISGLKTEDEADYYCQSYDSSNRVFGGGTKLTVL",
    "OBSERVED": 0.88
  },
  {
    "BINDER": "ABL-CD3-86 (antibody, V domains shown, mAb purified from hybridoma; chimeric AlivaMab IgG (human VH, CH1 and upper hinge; mouse middle hinge, CH2, CH3; human light chain)) VH: EVQLVESGGGLVKPGGSLRLSCAASGFTFSRYSMNWVRQAPGKGLEWVSTISRSSRYIYYGDSVKGRFTISRDNAKNSLLLQMNSLRAEDTAVYYCARDHNWSFDYWGKGILVTVSS VL: NFMLTQPLSVSESPGKTLTISCTRNSGSIASNYVQWYRQRPGSSPTTVIYEDKQRPSGVPDRFSGSIDSSSNSASLTISGLKAEDEADYYCQSCDSSNVVFGGGTTLTVL",
    "OBSERVED": 1.17
  },
  {
    "BINDER": "ABL-CD3-77 (antibody, V domains shown, mAb purified from hybridoma; chimeric AlivaMab IgG (human VH, CH1 and upper hinge; mouse middle hinge, CH2, CH3; human light chain)) VH: EVQLVESGGGLVKPGGSLRLSCAASGFTFSSYSMNWVRQAPGKGLEWVSSISSSSSYIYYADSVKGRFTISRDNAKNSLYLQMNSLRAEDTAVYYCARDGELGIGTYFDYWGQGTLVTVSS VL: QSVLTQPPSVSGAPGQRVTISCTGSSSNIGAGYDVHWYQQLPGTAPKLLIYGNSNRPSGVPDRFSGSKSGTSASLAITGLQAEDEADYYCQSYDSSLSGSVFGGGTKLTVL",
    "OBSERVED": -0.01
  }
]
